assay: Lethal effect after per os administration in mouse for 7 days; type: toxicity; conditions: in vivo, po
readout: LD50 at 168 h

The examples below pair each entry with its known result.
CCOP(=O)(Cc1ccc(-c2nc3ccccc3s2)cc1)N1CCCCCC1=O (stereo not drawn) ... > 1000 mg/kg
CCOP(=O)(Cc1ccc(-c2nc3ccccc3s2)cc1)N1CCCCC1=O (stereo not drawn) ... > 1000 mg/kg

Note LD50 at 168 h for the molecule shown: CCOP(=O)(Cc1ccc(-c2nc3ccccc3s2)cc1)N1CCSC1=O (stereo not drawn)
> 1000 mg/kg
